target: human placenta N-acetyl-β-hexosaminidase; assay: Kinetic analysis of human placenta β-hexosaminidase; settings: substrate 4-MU-GNAc, pH 4.5
Property Measured: Ki (nM)
Express the result in nM but write the number alone.

Observe how each entry below is paired with its result.
In [3]: df
Out[3]:
                                   compound                           target_of_assay  measured_result
0  CCCCCCCCN1C(CO)C(O)C(O)C1CNC(C)=O (centres unmarked)  human placenta N-acetyl-β-hexosaminidase              160
1  CC(=O)NCC1C(O)C(O)C(CO)N1CCOCCOCCN (centres unmarked)  human placenta N-acetyl-β-hexosaminidase               60
2  CCCCCCCN1C(CO)C(O)C(O)C1CNC(C)=O (centres unmarked)  human placenta N-acetyl-β-hexosaminidase              250
3  CCCCCCN1C(CO)C(O)C(O)C1CNC(C)=O (centres unmarked)  human placenta N-acetyl-β-hexosaminidase              180

Find the measured Ki: item CC(=O)NCC1C(O)C(O)C(CO)N1CCCCCCCN (centres unmarked) , target or system human placenta N-acetyl-β-hexosaminidase.
2.6

###

tested on: dengue virus serotype 2 (DEN-2); assay: Anti-DEN-2 cell-based assay (plaque forming assay, BHK-21 cells); conditions: read-out: DEN IC50; M.O.I. = 0.1, virus production, BHK-21 cells
Property Measured: pIC50
Friendly reminder that pIC50 comes from taking -log10 of the concentration in mol/L.

>>> print(df.to_string())
                                   compound                  target_of_assay  measured_result
0  CCCCCCCCCCN1C(CO)C(O)C(O)C1CNC(=O)C1Cc2ccccc21 (stereo not drawn)  dengue virus serotype 2 (DEN-2)             5.33
1  CCCCCCCCCN1C(CO)C(O)C(O)C1CNC(=O)C1Cc2ccccc21 (stereo not drawn)  dengue virus serotype 2 (DEN-2)             4.93

Proceed to the following item.
Which pIC50 value is on record for CCCCCCCCCCCCN1C(CO)C(O)C(O)C1CNC(=O)C1Cc2ccccc21 (stereo not drawn) ?
5.22

###

test system: β-glucosidase; experiment: β-glucosidase inhibition assay (in situ screen, IC50, Ki); format: biochemical, almonds; details: reaction product at 20 μM, in situ screening
Property Measured: β-glucosidase Inhibition (%)
Express the result in % but write the number alone.

Observe how each entry below is paired with its result.
In [3]: df
Out[3]:
                                   compound             property_measured  measured_result
0  O=C(/C=C/c1cccc(Cl)c1)NC[C@H]1N[C@H](CO)[C@@H](O)[C@@H]1O [Compound 13]  β-glucosidase Inhibition (%)               59
1  NC(Cn1ccc(=O)cc1)C(=O)NCC1NC(CO)C(O)C1O (centres unmarked) [Compound 9]  β-glucosidase Inhibition (%)               37

Which β-glucosidase Inhibition (%) value is on record for O=C(CCc1c[nH]c2ccccc12)NC[C@H]1N[C@H](CO)[C@@H](O)[C@@H]1O [Compound 21] ?
20

Which β-glucosidase Inhibition (%) value is on record for O=C(/C=C/c1c[nH]c2ccccc12)NC[C@H]1N[C@H](CO)[C@@H](O)[C@@H]1O [Compound 22] ?
34

Which β-glucosidase Inhibition (%) value is on record for CC(=O)NC[C@H]1N[C@H](CO)[C@@H](O)[C@@H]1O [Compound 5] ?
20

Which β-glucosidase Inhibition (%) value is on record for CSc1ccccc1C(=O)NC[C@H]1N[C@H](CO)[C@@H](O)[C@@H]1O [Compound 14] ?
7

Which β-glucosidase Inhibition (%) value is on record for O=C(Cc1ccc2ccccc2c1)NC[C@H]1N[C@H](CO)[C@@H](O)[C@@H]1O [Compound 16] ?
44

Which β-glucosidase Inhibition (%) value is on record for O=C(NC[C@H]1N[C@H](CO)[C@@H](O)[C@@H]1O)C1Cc2ccccc21 (some centres unmarked) [Compound 24] ?
45
